Each recorded value in this set is attributed to ChEMBL document CHEMBL5291721.

Hi! I'm sharing some AC50 results obtained with Kappa-type opioid receptor (Homo sapiens, UniProt P41145).
Sequence (P41145 whole entry): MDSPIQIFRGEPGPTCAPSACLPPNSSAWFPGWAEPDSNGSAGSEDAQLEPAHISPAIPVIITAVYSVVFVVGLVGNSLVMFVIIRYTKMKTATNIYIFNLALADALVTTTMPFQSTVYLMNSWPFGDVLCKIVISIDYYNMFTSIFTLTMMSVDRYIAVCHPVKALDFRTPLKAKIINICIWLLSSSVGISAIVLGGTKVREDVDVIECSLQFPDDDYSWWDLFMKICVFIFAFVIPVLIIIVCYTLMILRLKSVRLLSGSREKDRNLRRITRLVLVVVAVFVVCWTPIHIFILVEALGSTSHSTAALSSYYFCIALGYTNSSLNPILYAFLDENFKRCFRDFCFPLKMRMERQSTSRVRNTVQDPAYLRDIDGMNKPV
readout_kind: AC50 (µM)

[
  {
    "compound": "OC1(c2ccc(Cl)cc2)c2ccccc2C2=NCCN21 (configuration not stated)",
    "readout_kind": "AC50",
    "modifier_sign": ">",
    "measured": 30
  },
  {
    "compound": "Cc1cc2cc3c(C)cc(=O)oc3c(C)c2o1",
    "readout_kind": "AC50",
    "modifier_sign": ">",
    "measured": 10
  },
  {
    "compound": "OC[C@H]1O[C@@](CO)(O[C@H]2O[C@H](CO)[C@@H](O)[C@H](O)[C@H]2O)[C@@H](O)[C@@H]1O",
    "readout_kind": "AC50",
    "modifier_sign": ">",
    "measured": 30
  },
  {
    "compound": "Nc1cc(-c2ccncc2)c[nH]c1=O",
    "readout_kind": "AC50",
    "modifier_sign": ">",
    "measured": 10
  },
  {
    "compound": "C/C(=C\\C(=O)OCCCCCCCCC(=O)O)C[C@@H]1OC[C@H](C[C@@H]2O[C@H]2[C@@H](C)[C@H](C)O)[C@@H](O)[C@H]1O",
    "readout_kind": "AC50",
    "modifier_sign": ">",
    "measured": 10
  },
  {
    "compound": "CCC(COC(=O)c1cc(OC)c(OC)c(OC)c1)(c1ccccc1)N(C)C (configuration not stated)",
    "readout_kind": "AC50",
    "modifier_sign": "=",
    "measured": 0.19
  },
  {
    "compound": "CN(C)CCc1c[nH]c2ccc(Cn3cncn3)cc12",
    "readout_kind": "AC50",
    "modifier_sign": ">",
    "measured": 30
  },
  {
    "compound": "CN(C)CCC[C@@]1(c2ccc(F)cc2)OCc2cc(C#N)ccc21",
    "readout_kind": "AC50",
    "modifier_sign": ">",
    "measured": 30
  },
  {
    "compound": "Oc1ccc2c(c1)[C@@]13CCCC[C@@]1(O)[C@@H](C2)N(CC1CCC1)CC3",
    "readout_kind": "AC50",
    "modifier_sign": "=",
    "measured": 0.025
  },
  {
    "compound": "Cc1cnc(C(=O)NCCc2ccc(S(=O)(=O)NC(=O)NC3CCCCC3)cc2)cn1 [GLIPIZIDE]",
    "readout_kind": "AC50",
    "modifier_sign": ">",
    "measured": 10
  },
  {
    "compound": "O=C1CN=C(c2ccccc2)c2cc([N+](=O)[O-])ccc2N1",
    "readout_kind": "AC50",
    "modifier_sign": ">",
    "measured": 10
  },
  {
    "compound": "CCN(CC)CCN1C(=O)CN=C(c2ccccc2F)c2cc(Cl)ccc21",
    "readout_kind": "AC50",
    "modifier_sign": "=",
    "measured": 0.21
  },
  {
    "compound": "CCCCCCCCCCCCCCCCCCCCCC(=O)Nc1ccn([C@@H]2O[C@H](CO)[C@@H](O)[C@@H]2O)c(=O)n1",
    "readout_kind": "AC50",
    "modifier_sign": ">",
    "measured": 30
  },
  {
    "compound": "CCCCC(=O)O[C@]1(C(=O)CO)[C@@H](C)C[C@H]2[C@@H]3CCC4=CC(=O)C=C[C@]4(C)[C@@]3(F)[C@@H](O)C[C@@]21C [BETAMETHASONE VALERATE]",
    "readout_kind": "AC50",
    "modifier_sign": ">",
    "measured": 10
  },
  {
    "compound": "CN(C)CC[C@@H](c1ccc(Cl)cc1)c1ccccn1",
    "readout_kind": "AC50",
    "modifier_sign": "=",
    "measured": 12
  },
  {
    "compound": "COc1ccc2nc3cc(Cl)ccc3c(Nc3cc(CN4CCCC4)c(O)c(CN4CCCC4)c3)c2n1",
    "readout_kind": "AC50",
    "modifier_sign": "=",
    "measured": 15
  },
  {
    "compound": "Oc1ccc2c(c1)CC[C@H](c1ccccc1)[C@@H]2c1ccc(OCCN2CCCC2)cc1",
    "readout_kind": "AC50",
    "modifier_sign": "=",
    "measured": 0.0849
  },
  {
    "compound": "C[N@+]1(CCF)[C@@H]2CC[C@H]1C[C@@H](OC(=O)C(O)(c1ccccc1)c1ccccc1)C2",
    "readout_kind": "AC50",
    "modifier_sign": "=",
    "measured": 26
  },
  {
    "compound": "O=[N+]([O-])c1ccc(O)c2ncccc12",
    "readout_kind": "AC50",
    "modifier_sign": "=",
    "measured": 9.3
  },
  {
    "compound": "COc1ccccc1OCCNCC(O)COc1cccc2[nH]c3ccccc3c12 (configuration not stated)",
    "readout_kind": "AC50",
    "modifier_sign": "=",
    "measured": 18.9
  },
  {
    "compound": "Clc1ccc2c(N3CCN(CCCN4CCN(c5ccnc6cc(Cl)ccc56)CC4)CC3)ccnc2c1",
    "readout_kind": "AC50",
    "modifier_sign": "=",
    "measured": 17
  },
  {
    "compound": "CCC(=O)O[C@H]1CC[C@H]2[C@@H]3CCC4=CC(=O)CC[C@]4(C)[C@H]3CC[C@]12C [TESTOSTERONE PROPIONATE]",
    "readout_kind": "AC50",
    "modifier_sign": "=",
    "measured": 7.71
  },
  {
    "compound": "CCN(CC)CCNC(=O)c1c(C)[nH]c(/C=C2\\C(=O)Nc3ccc(F)cc32)c1C",
    "readout_kind": "AC50",
    "modifier_sign": "=",
    "measured": 10.3
  },
  {
    "compound": "CN(CC1(C)CCCO1)S(=O)(=O)c1ccc(Cl)c(S(N)(=O)=O)c1 (configuration not stated) [MEFRUSIDE]",
    "readout_kind": "AC50",
    "modifier_sign": ">",
    "measured": 30
  },
  {
    "compound": "O=C(O)CCNC(=O)c1ccccc1",
    "readout_kind": "AC50",
    "modifier_sign": ">",
    "measured": 30
  },
  {
    "compound": "NC(=O)CN1CCCC1=O",
    "readout_kind": "AC50",
    "modifier_sign": ">",
    "measured": 30
  },
  {
    "compound": "OCc1cc(C(O)CNCCCCCCOCCCCc2ccccc2)ccc1O (configuration not stated)",
    "readout_kind": "AC50",
    "modifier_sign": "=",
    "measured": 11
  },
  {
    "compound": "CO[C@H]1/C=C/O[C@@]2(C)Oc3c(C)c(O)c4c(O)c(c(/C=N/N5CCN(C)CC5)c(O)c4c3C2=O)NC(=O)/C(C)=C\\C=C\\[C@H](C)[C@H](O)[C@@H](C)[C@@H](O)[C@@H](C)[C@H](OC(C)=O)[C@@H]1C",
    "readout_kind": "AC50",
    "modifier_sign": ">",
    "measured": 30
  },
  {
    "compound": "CC(C)(C)C(=O)OCC(=O)[C@H]1CC[C@H]2[C@@H]3CCC4=CC(=O)CC[C@]4(C)[C@H]3CC[C@]12C [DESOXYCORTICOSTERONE PIVALATE]",
    "readout_kind": "AC50",
    "modifier_sign": ">",
    "measured": 10
  },
  {
    "compound": "C[C@]12CC[C@@H]3c4ccc(O)cc4C[C@@H](CCCCCCCCC[S+]([O-])CCCC(F)(F)C(F)(F)F)[C@H]3[C@@H]1CC[C@@H]2O (some centres not stated)",
    "readout_kind": "AC50",
    "modifier_sign": ">",
    "measured": 30
  },
  {
    "compound": "COc1cc2c(cc1OC)C(CCc1ccc(Cl)cc1)N(C)CC2 (configuration not stated)",
    "readout_kind": "AC50",
    "modifier_sign": "=",
    "measured": 1.2
  },
  {
    "compound": "C[C@H](Cc1ccc(O)c(O)c1)[C@@H](C)Cc1ccc(O)c(O)c1",
    "readout_kind": "AC50",
    "modifier_sign": "=",
    "measured": 15
  }
]

====

Target: Gastrin/cholecystokinin type B receptor (Homo sapiens, UniProt P32239); note: assay procedure not described here
Sequence (P32239 whole entry): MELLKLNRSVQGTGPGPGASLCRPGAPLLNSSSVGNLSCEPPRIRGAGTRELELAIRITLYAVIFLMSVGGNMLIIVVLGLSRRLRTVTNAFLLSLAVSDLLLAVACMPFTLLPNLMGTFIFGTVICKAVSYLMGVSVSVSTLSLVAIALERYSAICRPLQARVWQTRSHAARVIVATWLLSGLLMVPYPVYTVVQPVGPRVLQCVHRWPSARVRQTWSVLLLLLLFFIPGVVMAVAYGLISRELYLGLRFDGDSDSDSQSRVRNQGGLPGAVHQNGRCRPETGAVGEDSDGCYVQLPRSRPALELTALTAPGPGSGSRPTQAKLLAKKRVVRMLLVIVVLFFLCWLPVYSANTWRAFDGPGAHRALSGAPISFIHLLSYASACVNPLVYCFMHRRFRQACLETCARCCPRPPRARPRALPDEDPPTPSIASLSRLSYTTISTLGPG
We begin with a simple list: items and their reported AC50.
readout_kind: AC50

[
  {
    "compound": "O=C(O)c1ccccc1Nc1cc(Cl)ccc1C(=O)O",
    "measured": "> 10 µM"
  },
  {
    "compound": "COc1ccccc1OCCNCC(O)COc1cccc2[nH]c3ccccc3c12 (configuration not stated)",
    "measured": "> 30 µM"
  },
  {
    "compound": "O=C1CCc2cc(OCCCCc3nnnn3C3CCCCC3)ccc2N1",
    "measured": "> 30 µM"
  },
  {
    "compound": "Nc1ccc(S(=O)(=O)Nc2nccs2)cc1",
    "measured": "> 30 µM"
  },
  {
    "compound": "Cc1onc(-c2ccccc2)c1-c1ccc(S(N)(=O)=O)cc1",
    "measured": "> 30 µM"
  },
  {
    "compound": "CCCC(CCC)C(=O)O",
    "measured": "> 30 µM"
  },
  {
    "compound": "CCCC(CCC)C(N)=O [VALPROMIDE]",
    "measured": "> 30 µM"
  },
  {
    "compound": "N[C@@H](CC(=O)N1CCn2c(nnc2C(F)(F)F)C1)Cc1cc(F)c(F)cc1F",
    "measured": "> 10 µM"
  },
  {
    "compound": "CC(=O)[C@]1(O)Cc2c(O)c3c(c(O)c2[C@@H](O[C@H]2C[C@H](N)[C@H](O)[C@H](C)O2)C1)C(=O)c1ccccc1C3=O",
    "measured": "> 30 µM"
  },
  {
    "compound": "CC(C)Cc1ccc(C(C)C(=O)O)cc1 (configuration not stated)",
    "measured": "> 30 µM"
  },
  {
    "compound": "CC(=O)OCC(=O)[C@@]1(O)[C@H](C)C[C@H]2[C@@H]3CCC4=CC(=O)C=C[C@]4(C)[C@@]3(F)[C@@H](O)C[C@@]21C [DEXAMETHASONE ACETATE]",
    "measured": "> 30 µM"
  },
  {
    "compound": "COc1ccccc1Oc1c(NS(=O)(=O)c2ccc(C(C)(C)C)cc2)nc(-c2ncccn2)nc1OCCO",
    "measured": "> 30 µM"
  },
  {
    "compound": "C[C@]12CC[C@@H]3c4ccc(O)cc4C[C@@H](CCCCCCCCC[S+]([O-])CCCC(F)(F)C(F)(F)F)[C@H]3[C@@H]1CC[C@@H]2O (some centres not stated)",
    "measured": "> 30 µM"
  },
  {
    "compound": "CC12CC3CC(C)(C1)CC(N)(C3)C2 [MEMANTINE]",
    "measured": "> 30 µM"
  },
  {
    "compound": "CCCN(CCC)C(=O)Cc1c(-c2ccc(Cl)cc2)nc2ccc(Cl)cn12",
    "measured": "> 30 µM"
  },
  {
    "compound": "C[C@H]1c2cccc(O)c2C(=O)C2=C(O)[C@]3(O)C(=O)C(C(N)=O)=C(O)[C@@H](N(C)C)[C@@H]3[C@@H](O)[C@@H]21",
    "measured": "> 30 µM"
  },
  {
    "compound": "CC(=O)O[C@H](CC(=O)[O-])C[N+](C)(C)C",
    "measured": "> 30 µM"
  }
]
